Biological target: Amine oxidase [flavin-containing] A (Homo sapiens)
Sequence (P21397 whole entry): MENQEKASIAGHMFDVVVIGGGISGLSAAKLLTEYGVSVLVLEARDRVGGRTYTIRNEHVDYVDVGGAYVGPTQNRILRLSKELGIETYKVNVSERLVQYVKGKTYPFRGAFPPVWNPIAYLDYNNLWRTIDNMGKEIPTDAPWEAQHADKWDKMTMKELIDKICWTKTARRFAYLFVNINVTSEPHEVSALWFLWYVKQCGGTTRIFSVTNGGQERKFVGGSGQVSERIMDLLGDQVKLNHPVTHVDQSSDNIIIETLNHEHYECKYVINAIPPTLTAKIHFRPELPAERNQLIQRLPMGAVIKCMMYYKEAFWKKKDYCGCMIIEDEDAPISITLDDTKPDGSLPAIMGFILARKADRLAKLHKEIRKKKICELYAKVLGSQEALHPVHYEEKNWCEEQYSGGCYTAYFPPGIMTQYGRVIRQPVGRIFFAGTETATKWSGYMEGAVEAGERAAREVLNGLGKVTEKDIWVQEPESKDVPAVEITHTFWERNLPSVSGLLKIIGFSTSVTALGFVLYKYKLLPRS
Assay: Inhibition of recombinant human MAOA expressed in insect cell microsomes using kynuramine as substrate preincubated with substrate for 30 mins followed by enzyme addition and measured after 20 mins by fluorescence spectrophotometry
Consider the following compounds and their measured IC50 readings.

Previously resolved entries follow.
compoundStructureString: c1csc(-c2noc(-c3ccc(C4=NCCN4)cc3)n2)c1
IC50: 1.57 µM
//
compoundStructureString: COc1ccc(-c2noc(-c3ccc(C4=NCCN4)cc3)n2)cc1OC
IC50: > 100 µM
//
compoundStructureString: Cc1nn(Cc2nc(-c3cccc(C4=NCCN4)c3)no2)c(=O)c2ccccc12
IC50: 62.2 µM

In: What value of IC50 has been reported for the following compound? `c1ccc(-c2ccc(-c3noc(-c4ccc(C5=NCCN5)cc4)n3)cc2)cc1`
Out: > 100 µM

In: Item under review: `Cc1ccc(Cc2noc(-c3ccc(C4=NCCN4)cc3)n2)cc1` . Reported IC50?
Out: 55.5 µM

In: Recorded IC50 of `c1ccc(OCc2noc(-c3ccc(C4=NCCN4)cc3)n2)cc1` , please.
Out: > 100 µM

In: GET /values?readout=IC50&item= `O=c1c2ccccc2cnn1Cc1noc(-c2ccc(C3=NCCN3)cc2)n1`
Out: > 100 µM

In: Looking for the measured IC50 of `O=c1ccc(-c2ccccc2)nn1Cc1noc(-c2ccc(C3=NCCN3)cc2)n1` , can you help?
Out: > 100 µM

----------
Reported Ratio IC50 values follow for various molecules
species: Homo sapiens; assay: Selectivity index, ratio of IC50 for recombinant human MAOA expressed in insect cell microsomes to IC50 for recombinant human MAOB expressed in insect cell microsomes

// solved cases for Ratio IC50 follow
compoundStructureString: c1ccc(-n2cc(C3=NCCN3)c(-c3cccs3)n2)cc1
Ratio IC50: > 5.4
//
compoundStructureString: N#Cc1ccc(C2=NCCN2c2ccc(C(F)(F)F)cn2)cc1
Ratio IC50: > 2.4
//
compoundStructureString: N#Cc1ccc(C2=NCCN2c2cnccn2)cc1
Ratio IC50: > 5.8
//
compoundStructureString: O=c1ccc(-c2ccccc2)nn1Cc1noc(-c2ccc(C3=NCCN3)cc2)n1
Ratio IC50: > 164
//
compoundStructureString: Clc1ccc(-c2noc(-c3ccc(C4=NCCN4)cc3)n2)cc1Cl
Ratio IC50: 92

In the following, a different molecule is considered.
In: What value of Ratio IC50 has been recorded for this entry: `O=c1c2ccccc2cnn1Cc1noc(-c2ccc(C3=NCCN3)cc2)n1`
Out: > 79
